Target: T1, human TREM2 (human, UniProt Q9NZC2 19-174, limits assumed)
T1 construct: also called triggering receptor expressed on myeloid cells 2
T1 sequence: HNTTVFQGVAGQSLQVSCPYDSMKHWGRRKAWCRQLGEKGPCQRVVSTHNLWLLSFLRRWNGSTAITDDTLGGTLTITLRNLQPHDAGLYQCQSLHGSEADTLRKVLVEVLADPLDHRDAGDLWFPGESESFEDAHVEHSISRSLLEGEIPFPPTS
Test summary: 2nd screen 2 nM
Measured parameter: Binding Signal (fold over 6E7 Parental antibody) (fold)
The reply should be a number in fold, with the unit left off.

Given the binder V3 (antibody, V domains shown) VH: EVQLVQSGAEVKKPGESLKISCKGSGYSFASYWIAWVRQMPGKGLEWMGIIYPGDSDTRYSPSFQDQVTISADKSISTAYLQWSSLKASDTAMYFCARGRTFYYDSSDYFDYWGQGTLVTVSS VL: DIQMTQSPSSVSASVGDRVTITCRASQGISSWLAWYQQKPGKAPKLLIYAASSRQNGVPSRFSGSGSGTDFTLTISSLQPEDFATYFCQQADRFPRTFGQGTKLEIK , what is its reported Binding Signal (fold over 6E7 Parental antibody)?
1.95

Given the binder V14 (antibody, V domains shown) VH: EVQLVQSGAEVKKPGESLKISCKGSGYSFGSYWIAWVRQMPGKGLEWMGIIYPGDQDTRYSPSFQGQVTISADKSISTAYLQWSSLKASDTAMYFCARGRTFYYDSSDYFDYWGQGTLVTVSS VL: DIQMTQSPSSVSASVGDRVTITCRASQGISSWLAWYQQKPGKAPKLLIYAASRLQNGVPSRFSGSGSGTDFTLTISSLQPEDFATYFCQQADSFPRTFGQGTKLEIK , what is its reported Binding Signal (fold over 6E7 Parental antibody)?
2.57

Given the binder V27 (antibody, V domains shown) VH: EVQLVQSGAEVKKPGESLKISCKGSGYSFTSYWIAWVRQMPGKGLEWMGIIYPGDSDTRYAPSFQGQVTISADKSISTAYLQWSSLKASDTAMYFCVRSRTFYYDSSDYFDYWGQGTLVTVSS VL: DIQMTQSPSSVSASVGDRVTITCRASQGISSWLAWYQQKPGKAPKLLIYAASSLQRGVPSRFSGSGSGTDFTLTISSLQPEDFATYFCQQADSFPRTFGQGTKLEIK , what is its reported Binding Signal (fold over 6E7 Parental antibody)?
5.67
